experimentalProtocol: qHTS assay to identify small molecule antagonists of the estrogen related receptor (ERR) signaling pathway from Tox21 library - cell viability counter screen (AID 1224834); also: % is scaled to controls: 0 for no effect and ±100 for the full control effect; nearly all actives have a fitted effect of over 30% in size
testContext: ERR reporter cells viability, CellTiter-Fluor, 17.5 h; series mostly up to 92.4 µM
Results filed as inconclusive are left out. The source made the active and inactive calls. Calls follow the shape of the dose curve; as a rule, active = well fitted cell-killing curve with a large enough effect in the repeat runs; inconclusive = weak or mixed curves; inactive = flat fitted curve, though single readings scatter.

| molecule | viability change, negative = cytotoxic |
| --- | --- |
| CCCCCCCCCCCC(C)=O | inactive |
| O=C(O)/C=C(\CC(=O)O)C(=O)O | inactive |
| NNC(=O)OCc1ccccc1 | inactive |
| N#Cc1ccccc1C#N | inactive |
| Cc1cc(=O)oc2cc(O[C@@H]3SC[C@@H](O)[C@H](O)[C@H]3O)ccc12 | inactive |
| CN(C)c1ccncc1 | inactive |
| Cc1ccc2cccnc2c1 | inactive |
| C/C(Cl)=C/CCl | inactive |
| COc1ccccc1N1CCN(CC(O)COc2cc(OC)c(OC)c(OC)c2)CC1 (stereo unspecified) | inactive |
| CC(C)(Sc1cc(C(C)(C)C)c(O)c(C(C)(C)C)c1)Sc1cc(C(C)(C)C)c(O)c(C(C)(C)C)c1 | inactive |
| O=S(=O)(O)c1ccc(Cl)cc1 | inactive |

###

experimentalProtocol: qHTS assay for small molecules that induce genotoxicity in human embryonic kidney cells expressing luciferase-tagged ATAD5 (AID 651632); also: nearly all actives have a fitted effect of over 15% in size; as to activation: % is scaled to controls: 0 for no effect and ±100 for the full control effect
testContext: HEK293T ATAD5-luciferase induction, 16 h; series mostly up to 83.3 µM
Records with an inconclusive call do not appear. The source made the active and inactive calls. The call rests on the fitted dose curve; in most records, active means well fitted activation curve with a large enough effect in the repeat runs; inconclusive means weak or mixed curves; inactive means no such curve, though single readings can be large or run the other way. Non-standard residues stand in square brackets, D forms with d. Residues, ends and D or L forms follow the SMILES beside them. *: point of attachment. Sta = CC(C)C[C@H](N)[C@@H](O)CC(=O)O; Isovaleryl = CC(C)CC(=O)*
Outcomes: active, inactive

| compound | classAssignment |
| --- | --- |
| CC1(C)CC(N)CC(C)(C)N1 | inactive |
| CC(C)OC(=O)C(C(=O)OC(C)C)=C1SC=CS1 | inactive |
| CC(C)(C)C(=O)NCCCC(=O)O | inactive |
| CC(C)(C)C(=O)CC(=O)C(C)(C)C | inactive |
| CC(=O)Nc1ccc(OCCOCCOc2ccc(NC(C)=O)cc2)cc1 | inactive |
| C[n+]1ccccc1/C=N/O | inactive |
| CCCCCCCCCCCCCCCC/C=C/C1CC(=O)OC1=O (stereo unspecified) | inactive |
| C[C@]12C=CC(=O)C=C1[C@@H](F)C[C@@H]1[C@@H]2[C@@H](O)C[C@@]2(C)[C@H]1CC[C@]2(O)C(=O)CO | inactive |
| CCC(=O)OCCOc1ccccc1 | inactive |
| CCNC(=O)C(C)OC(=O)Nc1ccccc1 (stereo unspecified) | inactive |
| C=CCn1cc[n+](C)c1 | inactive |
| CC(=O)c1ccc2ccc3ccccc3c2c1 | inactive |
| CC(C)CC(=O)N[C@H](C(=O)N[C@H](C(=O)N[C@@H](CC(C)C)[C@@H](O)CC(=O)N[C@@H](C)C(=O)N[C@@H](CC(C)C)[C@@H](O)CC(=O)O)C(C)C)C(C)C (Isovaleryl-VV[Sta]A[Sta]-OH) | inactive |
| CC(O)C(CO)C(C)O (stereo unspecified) | inactive |
| CCCCC(CC)COC(=O)CC#N (stereo unspecified) | inactive |
| Cc1ccc(O)c([N+](=O)[O-])c1 | inactive |
| CN(C)CCc1c[nH]c2ccc(C[C@H]3COC(=O)N3)cc12 | inactive |
| NCC1CCC(C(=O)Oc2ccc(CCC(=O)O)cc2)CC1 (stereo unspecified) | inactive |
| CC1=C(O)C(=O)CO1 | inactive |
| CCc1ccc(CC)cc1 | inactive |
| CCO[Si](CC(C)C)(OCC)OCC | inactive |
| CC/C=C/CCCCCCCCCCOC(C)=O | inactive |
| COc1ccc2cc(CCC(C)=O)ccc2c1 | active |
| O=C(O)/C=C(\CC(=O)O)C(=O)O | inactive |
| Nc1nc(Cl)cc(Cl)n1 | inactive |
| CCN1CCN(C(=O)N[C@@H](C(=O)N[C@@H]2C(=O)N3C(C(=O)O)=C(CSc4nnnn4C)CS[C@H]23)c2ccc(O)cc2)C(=O)C1=O | inactive |

###

experimentalProtocol: qHTS RealTime-Glo MT Cell Viability Assay in HEK293 cells - 24 hour (AID 1224886); also: top concentration of the series differs between compounds; % is scaled to controls: 0 for no effect and ±100 for the full control effect; nearly all actives have a fitted effect of over 50% in size
testContext: RealTime-Glo luminescence; series mostly up to 76.8 µM
Inconclusive results are not listed. Calls of active or inactive are those of the source. Calls come from the whole dose curve; as a rule, active = well fitted cell-killing curve with a large enough effect in the repeat runs; inconclusive = weak or mixed curves, or effect the other way; inactive = flat fitted curve, though single readings scatter.

| compound | activity change, negative = cytotoxicity |
| --- | --- |
| NNC(=O)OCc1ccccc1 | inactive |
| CC(C)(O)CCCC1=CCC(C=O)CC1 (centres undefined) | inactive |
| CC(C)(C)OC(=O)c1ccccc1C(=O)O | inactive |
| COC(=O)c1cc(Cl)c(NC(C)=O)cc1OC | inactive |
| Cc1ccc(O)c([N+](=O)[O-])c1 | inactive |
| C[C@@H](CN1CC(=O)NC(=O)C1)N1CC(=O)NC(=O)C1 | inactive |
| COc1cc(NS(=O)(=O)c2ccc(N)cc2)ncn1 | inactive |
| COCCCOc1cc(C[C@@H](C[C@H](N)[C@@H](O)C[C@H](C(=O)NCC(C)(C)C(N)=O)C(C)C)C(C)C)ccc1OC | inactive |
| Nc1cc(S(=O)(=O)O)ccc1O | inactive |
| CN(C)CCCN(C)C | 3.07% [at 6.97 µM] (inactive) |
| CC(C)C(C)C | inactive |
| O=c1[nH]c(=O)c2cn[nH]c2[nH]1 | inactive |
| CN1CCN(C(=O)C2CCCCC2)CC1 | inactive |
| CC/C=C\CCCCCCCCCCOC(C)=O | inactive |

###

experimentalProtocol: qHTS assay for small molecule agonists of the antioxidant response element (ARE) signaling pathway - cell viability counter screen (AID 743203); also: % is scaled to controls: 0 for no effect and ±100 for the full control effect; nearly all actives have a fitted effect of over 55% in size
testContext: ARE-bla HepG2 viability, CellTiter-Glo luminescence, 16 h; series mostly up to 73.3 µM
From the text: National Center for Advancing Translational Sciences [NCATS] NIH Chemical Genomics Center [NCGC] U.S. Environmental Protection Agency [EPA] National Institutes of Environmental Health Sciences [NIEHS] National Toxicology Program [NTP] U.S. Food and Drug Administration [FDA] Oxidative stress has been implicated in the pathogenesis of a variety of diseases ranging from cancer to neurodegeneration. […] The activation of the report gene under culture conditions can be detected by fluorescence intensity. […]
Results filed as inconclusive are left out. Active and inactive are the calls of the source. Calls follow the shape of the full dose curve.
propertyMeasured: viability change, negative = cytotoxic

| compound | propertyMeasured | observedMeasurement |
| --- | --- | --- |
| NC[C@H]1O[C@H](O[C@H]2[C@H](O)[C@@H](O[C@H]3O[C@H](CO)[C@@H](O)[C@H](N)[C@H]3O)[C@H](N)C[C@@H]2N)[C@H](N)[C@@H](O)[C@@H]1O | viability change, negative = cytotoxic | inactive |
| CC(C)(O)c1ccc(C(C)(C)O)cc1 | viability change, negative = cytotoxic | inactive |
| Cc1ccc(OC(=O)CC(C)C)cc1 | viability change, negative = cytotoxic | inactive |
| CCOCCOCCOC(C)=O | viability change, negative = cytotoxic | inactive |
| c1cc2ccc3ccc4ccc5cccc6c(c1)c2c3c4c56 | viability change, negative = cytotoxic | 6.8% [at 3.74 µM] (inactive) |
| C=CCOC(=O)CCCCCCCC | viability change, negative = cytotoxic | inactive |
| CC(=O)OC1CCC(C(C)(C)C)CC1 (configuration not stated) | viability change, negative = cytotoxic | inactive |
| CCCCCCCOC(C)=O | viability change, negative = cytotoxic | inactive |
| C=CCN(CC=C)CC=C | viability change, negative = cytotoxic | inactive |
| CCOC(=O)CN1CCCC1=O | viability change, negative = cytotoxic | inactive |
| CCN1CCN(C(=O)N[C@@H](C(=O)N[C@@H]2C(=O)N3[C@@H]2SC(C)(C)[C@H]3C(=O)O)c2ccccc2)C(=O)C1=O | viability change, negative = cytotoxic | inactive |
| N=C(N)N1CCc2ccccc2C1 | viability change, negative = cytotoxic | -8.38% [at 8.36 µM] (inactive) |

###

experimentalProtocol: qHTS assay to identify small molecule agonists or antagonists of the thyroid stimulating hormone receptor (TSHR) signaling pathway - wild type cell line counter screen (AID 1259384); also: % is scaled to controls: 0 for no effect and ±100 for the full control effect
testContext: HEK293 wild type, cAMP HTRF counter-screen, hits give high values; series mostly up to 92.4 µM
Results filed as inconclusive are left out. Active and inactive are the calls of the source. Calls follow the shape of the full dose curve.

| molecule | cAMP activity change |
| --- | --- |
| CC(C)(Sc1cc(C(C)(C)C)c(O)c(C(C)(C)C)c1)Sc1cc(C(C)(C)C)c(O)c(C(C)(C)C)c1 | inactive |
| C/C=C(\C)C=O | inactive |
| C[C@@H]1CC[C@@]2(OC1)O[C@H]1C[C@H]3[C@@H]4CC[C@H]5C[C@@H](O)CC[C@]5(C)[C@H]4CC(=O)[C@]3(C)[C@H]1[C@@H]2C | -0.224% [at 8.39 µM] (inactive) |
| CN(C)CCC[C@@]1(c2ccc(F)cc2)OCc2cc(C#N)ccc21 | inactive |
| Cc1ccc(S(=O)(=O)NC(=O)NN2CC3CCCC3C2)cc1 (centres undefined) | inactive |
| O=S(=O)(O)c1cc(I)c(O)c2ncccc12 | inactive |
| CCCCOCCCC | inactive |
| O=c1c(O)c(O)c1=O | inactive |
| CC(=O)SCC(CC(=O)c1ccc(C)cc1)C(=O)O (centres undefined) | inactive |
| CCO[Si](CC(C)C)(OCC)OCC | inactive |
| C=C(C)C(=O)OCCOC1CC2CC1C1C=CCC21 (centres undefined) | inactive |
| O=C1c2ccccc2C(=O)N1CO | inactive |
| CC(O)C(CO)C(C)O (centres undefined) | inactive |
| CC(=O)/C=C/C=C1/C2CCC(C2)C1(C)C (centres undefined) | inactive |
| CC(=O)SC[C@@H](C)C(=O)N1CCC[C@H]1C(=O)N[C@@H](Cc1ccccc1)C(=O)O | inactive |
| CCCCS | inactive |
| CCOc1ccccc1OCCN[C@H](C)Cc1ccc(OC)c(S(N)(=O)=O)c1 | inactive |
| CNCCc1ccccn1 | inactive |
| Clc1ccc2c(c1)Nc1ccccc1S2 | inactive |
| CC(C)=CCC/C(C)=C\C#N | inactive |
| Cc1ccc(N)nc1 | inactive |
| CCN(CC)CC(=O)Oc1ccc(NC(C)=O)cc1 | inactive |
| CC(CC(=O)Cl)CC(C)(C)C (centres undefined) | inactive |
| C=COCCCCO | inactive |
| C=CCn1cc[n+](C)c1 | inactive |
| C=C(C)C(=O)OCCCC | inactive |
| Cc1cc(C)c(N)c(Cl)c1 | inactive |
| C[n+]1ccccc1/C=N/O | inactive |
| O=CN1CCCCC1 | inactive |
